Provide the reported melting point of each item.

In: Look up melting point for this compound: S=C(Nc1ccc(Sc2ccc3ccccc3n2)cc1)Nc1ccc(Cl)c(Cl)c1
Out: 125 to 126 °C

In: So what does the record say about melting point for NC(=O)NC(C(=O)O)c1cccs1 (stereo not given) ?
Out: 183 to 185 °C

In: I have this compound here, CC1C(=CO)C(=O)c2c(O)cc(OCCCCc3ccccc3)cc2N1C=O (stereo not given) , and I need its recorded melting point.
Out: 101 to 103 °C

In: GET /values?readout=melting point&item= ON=C(c1cccc2nc(N[C@@H]3CCc4ccccc43)ccc12)C1CC1
Out: 151 °C

In: melting point for O=C(NC1CCC(CCN2CCN(c3nccc4c3OCC4)CC2)CC1)C1CCCO1 (racemic) ?
Out: 145 °C

In: Sample CCn1ncc2c(NCC3CC3)c3ccccc3nc21 — what was its melting point?
Out: 228 to 230 °C

In: What value of melting point has been recorded for this entry: Cc1oc(-c2ccco2)nc1COc1ccc(Cn2cc(CCC(=O)O)c(-c3ccccc3)c2)cc1
Out: 86 to 87 °C

In: Give its melting point value. Item: CC(=O)OCc1ccc(-c2nc3c(s2)C(=O)c2ccccc2C3=O)o1
Out: 204 °C

In: Recorded melting point of Cc1cn(C2CCCCC2)c(=O)nc1N , please.
Out: 205 to 207 °C

In: For CCn1c(=O)oc2cc(N)ccc21 , what is its reported melting point?
Out: 72 to 74 °C

All figures here come from a melting point compilation (Tetko et al.; mined from patent text by program, amines drawn as free bases though some values may be those of a salt).
